# Species: Rattus norvegicus
# experiment: Open TG-GATES - Regimen: Single
# Assay type: toxicity, organism-based, Sprague-Dawley
# Set-up: regimen Single, gender Male, age 6 weeks
# study-conditions: in vivo, po, 0 mg/kg, 3 h, tissue Blood, route gavage, dose level Control
measurement-type: Hb (g/dL)
Numbers only, in g/dL.

{"compound": "CC1=C(/C=C/C(C)=C/C=C/C(C)=C/CO)C(C)(C)CCC1", "val": 13.3}
{"compound": "Cc1ccc(C)c(OCCCC(C)(C)C(=O)O)c1", "val": 14}
{"compound": "CCCNC(=O)NS(=O)(=O)c1ccc(Cl)cc1 [CHLORPROPAMIDE]", "val": 13.3}

Go through the list and state Hb for each entry.
1. CN1C(=O)CN=C(c2ccccc2)c2cc(Cl)ccc21
2. NC(N)=Nc1nc(CSCCC(N)=NS(N)(=O)=O)cs1

[reply]
1: 13.5; 2: 13.2

====

For each record, write down the corresponding AST.
# Species: Rattus norvegicus
# experiment: Open TG-GATES - Regimen: Single
# Format: toxicity, organism-based, Sprague-Dawley
# Design: regimen Single, gender Male, age 6 weeks
# study-conditions: in vivo, po, 30 mg/kg, 9 h, tissue Plasma, route gavage, dose level Middle
Give bare numbers, in IU/L.

Observe how each entry below is paired with its result.
{"compound-structure": "CN(C)CCCN1c2ccccc2CCc2ccc(Cl)cc21", "unit-spec": "IU/L", "AST": 71.8}
{"compound-structure": "CN(C)CCCN1c2ccccc2CCc2ccccc21", "unit-spec": "IU/L", "AST": 65.2}
{"compound-structure": "CN(C)CCN(Cc1cccs1)c1ccccn1", "unit-spec": "IU/L", "AST": 69.8}

Would you kindly look at the next entry?
[ask] Recall and state the measured AST for `CC1=C(/C=C/C(C)=C/C=C/C(C)=C/CO)C(C)(C)CCC1` .
[reply] 67.4

====

# Species: Rattus norvegicus
# experiment: Open TG-GATES - Regimen: Daily Repeat
# Assay type: toxicity, organism-based, Sprague-Dawley
# Set-up: regimen Daily Repeat, gender Male, age 6 weeks
# study-conditions: in vivo, po, 1000 mg/kg, […], tissue Blood, route gavage, dose level High, time 7 day
measurement-type: Fbg
Answer format: value, then unit.

// known answers, use as guide
{"compound": "CCOC(=O)CCC(=O)O[C@H]1[C@H](O[C@@H]2[C@@H](C)[C@H](O[C@H]3C[C@@](C)(OC)[C@@H](O)[C@H](C)O3)[C@@H](C)C(=O)O[C@H](CC)[C@@](C)(O)[C@H](O)[C@@H](C)C(=O)[C@H](C)C[C@@]2(C)O)O[C@H](C)C[C@@H]1N(C)C [ERYTHROMYCIN ETHYLSUCCINATE]", "val": "338.6 mg/dL"}
{"compound": "NC(N)=Nc1nc(CSCCC(N)=NS(N)(=O)=O)cs1", "val": "223.4 mg/dL"}
{"compound": "CCOc1ccc(NC(=O)CC(C)O)cc1 (stereo unspecified)", "val": "270.6 mg/dL"}
{"compound": "COc1ccc2[nH]c([S+]([O-])Cc3ncc(C)c(OC)c3C)nc2c1 (stereo unspecified)", "val": "215.2 mg/dL"}

I need Fbg for every entry listed below, if you could help.
1. CC(C)OC(=O)C(C)(C)Oc1ccc(C(=O)c2ccc(Cl)cc2)cc1 [FENOFIBRATE]
2. COC1=CC(=O)C[C@@H](C)[C@]12Oc1c(Cl)c(OC)cc(OC)c1C2=O

[reply]
222.2 mg/dL
231.6 mg/dL
